Target: T1, Plasmodium falciparum histidine-rich protein II (HRP-II) (Plasmodium falciparum, UniProt P05227 22-332)
T1 construct: Coating antigen of all ELISAs; also called HRP-II protein; MA-HRPII Ag protein
T1 sequence (looked up): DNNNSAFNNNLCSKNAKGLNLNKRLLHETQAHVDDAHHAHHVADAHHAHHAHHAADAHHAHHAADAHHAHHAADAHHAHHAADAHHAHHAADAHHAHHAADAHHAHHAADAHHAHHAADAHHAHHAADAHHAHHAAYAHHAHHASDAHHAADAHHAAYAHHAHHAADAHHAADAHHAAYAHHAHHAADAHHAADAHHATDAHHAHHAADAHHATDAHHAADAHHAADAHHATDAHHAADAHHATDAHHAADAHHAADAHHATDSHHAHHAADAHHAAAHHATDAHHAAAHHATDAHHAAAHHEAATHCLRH
Assay: indirect ELISA, four antigen coating concentrations;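 further: optical density read across an antibody dilution series at each antigen coating level, curves plotted on log scale, KD derived as reciprocal of the averaged constant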
I'd be grateful if you could share measured Kd for these entries.
Numeric answer plus unit only.

[[record]]
binder = "Mutation 1-22 (antibody, mouse IgG2b, kappa, V domains shown, Mutation 1 as framework) VH: EVQLQQSGPEVVKPGASVKISCKASGYTITDYYMNWVKQSHGKGLEWIGDINPIQGGTAYQQKFRDKATLTVDKSSNTAYMELRSLTSEDSALYYCTKGAEDYWGQGTTLTVSS VL: DVVLTQTPLSLSVTIGQPASISCKSSQSIIYSNGKIYLNWFQQRPGQSPKRLMYQVSKLDPGIPDRFSGSGSETDFTLKISRVEAEDLGVYYCLQATYSPQTFGGGTKLEIKR"
result = "0.0814 nM"

[[record]]
binder = "Mutation 1-7 (antibody, mouse IgG2b, kappa, V domains shown, Mutation 1 as framework) VH: EVQLQQSGPEVVKPGASVKISCKASGYTITDYYMNWVKQSHGKGLEWIGDINPINGGTAYQQKFRDKATLTVDKSSNTAYMELRSLTSEDSALYYCTRGAEDYWGQGTTLTVSS VL: DVVLTQTPLSLSVTIGQPASISCKSSQSLIYSNGKIYLNWFQQRPGQSPKRLMYQISKLEPGIPDRFSGSGSETDFTLKISRVEAEDLGVYYCLQATYYPQTFGGGTKLEIKR"
result = "0.329 nM"


Query binder follows.
Prompt: Please look up its Kd: Mutation 1-17 (antibody, mouse IgG2b, kappa, V domains shown, Mutation 1 as framework) VH: EVQLQQSGPEVVKPGASVKISCKASGYTITDYYMNWVKQSHGKGLEWIGDVNPINGGTAYNQKFRDKATLTVDKSSNTAYMELRSLTSEDSALYYCTKGAEDYWGQGTTLTVSS VL: DVVLTQTPLSLSVTIGQPASISCKSSQSLLYSQGKIYLNWFQQRPGQSPKRLMYQVSKLEPGIPDRFSGSGSETDFTLKISRVEAEDLGVYYCLQGTYYPQTFGGGTKLEIKR
Completion: 0.0824 nM
